These data points were gathered from patent US10577378B2.

Quick list: IC50 per entry.
System: MDA-MB-231 human breast cancer cells
Assay Summary: Cell proliferation assay (CellTiter-Glo, 72 hours treatment)
Type: cell-based
Measurement Setup: Homo sapiens; MDA-MB-231 cells, 72 hours at 37° C., CellTiter-Glo; read-out: MDA-MB-231 cell proliferation assay (IC50)
Measured Property: IC50

molecule="CNS(=O)(=O)[C@H]1[C@@H](O)[C@@]2(O)c3ncc(Cl)cc3O[C@@]2(c2ccc(Br)cc2)[C@@H]1c1ccccc1 (racemic) [124F]" meas_value="0.1 to 1 µM"
molecule="COc1cncc2c1[C@]1(O)[C@H](O)[C@H](CN(C)CC(F)(F)F)[C@@H](c3ccccc3)[C@]1(c1ccc(C#N)cc1)O2 (single isomer, unassigned) [233F]" meas_value="0.1 to 1 µM"
molecule="O=S(=O)(Cc1ccccc1)[C@H]1[C@@H](O)[C@@]2(O)c3ncc(Cl)cc3O[C@@]2(c2ccc(Br)cc2)[C@@H]1c1ccccc1 (racemic) [93F]" meas_value="> 1 µM"
molecule="COc1nc(C#N)cc2c1[C@]1(O)[C@H](O)[C@H](CN3CCCC3)[C@@H](c3ccccc3)[C@]1(c1ccc(Br)cc1)O2 (racemic) [158Fa]" meas_value="< 0.1 µM"
molecule="CN(C)C(=O)[C@H]1[C@@H](O)[C@@]2(O)c3cnc(C#N)cc3O[C@@]2(c2ccc(C#N)cc2)[C@@H]1c1ccccc1 (racemic) [14F]" meas_value="0.1 to 1 µM"
molecule="COC(=O)[C@@H]1C(c2ccccc2)[C@]2(c3ccc(I)cc3)Oc3cncc(OC)c3[C@]2(O)[C@@H]1O (mixture of isomers) [193F]" meas_value="0.1 to 1 µM"
molecule="COc1nc(Cl)cc2c1[C@]1(O)[C@H](O)[C@H](CN(C)C)[C@@H](c3ccccc3)[C@]1(c1ccc(C(F)F)cc1)O2 (racemic) [143F]" meas_value="< 0.1 µM"
molecule="COc1cncc2c1[C@]1(O)[C@H](O)[C@H](CN3CCC(F)(F)C3)[C@@H](c3ccccc3)[C@]1(c1ccc(C#N)cc1)O2 (single isomer, unassigned) [280F]" meas_value="0.1 to 1 µM"
molecule="OC[C@H]1C[C@@H](c2ccccc2)[C@]2(c3ccc(Br)cc3)Oc3cc(Cl)cnc3[C@]12O (racemic) [162F]" meas_value="0.1 to 1 µM"
molecule="CN(C)C(=O)[C@@H]1[C@@H](c2ccccc2)[C@]2(c3ccc(C#N)cc3)Oc3cc(Cl)cnc3[C@]2(O)[C@]1(C)O (racemic) [33Fa]" meas_value="0.1 to 1 µM"
molecule="COc1nc(C#N)cc2c1[C@]1(O)[C@@H](CN(C)C)[C@H](CO)[C@@H](c3ccccc3)[C@]1(c1ccc(C#N)cc1)O2 (racemic) [210F]" meas_value="< 0.1 µM"
molecule="COc1cncc2c1[C@]1(O)[C@@H](CN)[C@H](CO)[C@@H](c3ccccc3)[C@]1(c1ccc(Br)cc1)O2 (racemic) [170F]" meas_value="< 0.1 µM"
molecule="COc1nc(C#N)cc2c1[C@]1(O)[C@H](O)[C@H](CN3CCC34CC4(F)F)[C@@H](c3ccccc3)[C@]1(c1ccc(C#N)cc1)O2 (mixture of isomers) [221F]" meas_value="< 0.1 µM"
molecule="COc1nc(Cl)cc2c1[C@]1(O)[C@H](O)[C@H](CN3CCC(F)CC3)[C@@H](c3ccccc3)[C@]1(c1ccc(C#N)cc1)O2 (racemic) [156Fb]" meas_value="< 0.1 µM"
molecule="COc1cncc2c1[C@]1(O)[C@@H](CN)C[C@@H](c3ccccc3)[C@]1(c1ccc(C#N)cc1)O2 (racemic) [173F]" meas_value="< 0.1 µM"
molecule="COc1nc(Cl)cc2c1[C@]1(O)[C@H](O)[C@H](C(=O)N(C)C)[C@@H](c3ccccc3)[C@]1(c1ccc(Br)cc1)O2 (racemic) [137F]" meas_value="< 0.1 µM"
molecule="COc1cncc2c1[C@]1(O)[C@H](O)[C@H](C(=O)N3CCOCC3)[C@@H](c3ccccc3)[C@]1(c1ccc(C(F)(F)F)cc1)O2 (racemic) [281F]" meas_value="0.1 to 1 µM"
molecule="COc1cncc2c1[C@]1(O)[C@H](O)[C@H](CN3CCC3)[C@@H](c3ccccc3)[C@]1(c1ccc(C#N)cc1)O2 (racemic) [71F]" meas_value="< 0.1 µM"
molecule="C#CC1C[C@@H](c2ccccc2)[C@]2(c3ccc(Br)cc3)Oc3cc(Cl)cnc3[C@]12O (mixture of isomers) [48F]" meas_value="> 1 µM"
molecule="CN(C)C(=O)[C@H]1[C@@H](O)[C@@]2(O)c3ncc(Cl)cc3O[C@@]2(c2ccc(C(F)(F)F)cc2)[C@@H]1c1ccccc1 (single isomer, unassigned) [8F]" meas_value="0.1 to 1 µM"
molecule="N#Cc1ccc([C@@]23Oc4cc(Cl)cnc4[C@]2(O)[C@@H](CO)C[C@H]3c2ccccc2)cc1 (racemic) [167F]" meas_value="0.1 to 1 µM"
molecule="O[C@H]1C[C@@H](c2ccccc2)[C@]2(c3ccc(Br)cc3)Oc3cc(Cl)cnc3[C@]12O (racemic) [130F]" meas_value="> 1 µM"
molecule="COc1cncc2c1[C@]1(O)[C@H](O)[C@H](S(C)(=O)=O)[C@@H](c3ccccc3)[C@]1(c1ccc(Br)cc1)O2 (racemic) [101F]" meas_value="0.1 to 1 µM"
molecule="COc1nccc2c1[C@]1(O)[C@H](O)[C@H](CN(C)C)[C@@H](c3ccccc3)[C@]1(c1ccc(C(F)(F)F)cc1)O2 (racemic) [149F]" meas_value="> 1 µM"
molecule="COc1cncc2c1[C@]1(O)[C@H](O)[C@H](C(=O)N(C)C3CC3)[C@@H](c3ccccc3)[C@]1(c1ccc(Br)cc1)O2 (racemic) [245F]" meas_value="0.1 to 1 µM"

----------
Tested on: MDA-MB-231 human breast cancer cells
Assay Summary: Cell proliferation assay (CellTiter-Glo, 72 hours treatment)
Format: cell-based
Measurement Setup: Homo sapiens; MDA-MB-231 cells, 72 hours at 37° C., CellTiter-Glo; read-out: MDA-MB-231 cell proliferation assay (IC50)
Recorded IC50, one value per entry.
Measured Property: IC50

compound="CN(C)C(=O)[C@H]1[C@@H](O)[C@@]2(O)c3ccc(C#N)cc3S[C@@]2(c2ccc(C#N)cc2)[C@@H]1c1ccccc1 (racemic) [13F]" target_or_system="MDA-MB-231 human breast cancer cells" meas_value="> 1000 nM"
compound="CNC[C@H]1[C@@H](O)[C@@]2(O)c3ncc(Cl)cc3O[C@@]2(c2ccc(C#N)cc2)[C@@H]1c1ccccc1 (racemic) [39F]" target_or_system="MDA-MB-231 human breast cancer cells" meas_value="100 to 1000 nM"
compound="COc1nc(C#N)cc2c1[C@]1(O)[C@@H](CN3CCC(F)(F)CC3)[C@H](CO)[C@@H](c3ccccc3)[C@]1(c1ccc(C#N)cc1)O2 (racemic) [213F]" target_or_system="MDA-MB-231 human breast cancer cells" meas_value="< 100 nM"

----------
We begin with a simple list: items and their reported pIC50.
System: MDA-MB-231 human breast cancer cells
Assay Summary: Cell proliferation assay (CellTiter-Glo, 72 hours treatment)
Format: cell-based
Measurement Setup: Homo sapiens; MDA-MB-231 cells, 72 hours at 37° C., CellTiter-Glo; read-out: MDA-MB-231 cell proliferation assay (IC50)
pIC50: −log10 of the molar value.
Measured Property: pIC50

molecule="CN(C)C(=O)[C@H]1[C@@H](O)[C@@]2(O)c3ncc(Cl)cc3O[C@@]2(c2ccc(OC(F)(F)F)cc2)[C@@H]1c1ccccc1 (single isomer, unassigned) [17F]" meas_value="6.00 to 7.00"
molecule="N#Cc1ccc([C@@]23Oc4cc(Cl)cnc4[C@]2(O)[C@@H]2OC(=O)N[C@@H]2[C@H]3c2ccccc2)cc1 (racemic) [54F]" meas_value="6.00 to 7.00"
molecule="CN(C)C(=O)[C@H]1[C@@H](O)[C@@]2(O)c3ncc(Cl)cc3O[C@@]2(c2ccc(F)cc2)[C@@H]1c1ccccc1 (single isomer, unassigned) [10F]" meas_value="< 6.00"

----------
Tested on: MDA-MB-231 human breast cancer cells
Assay Summary: Cell proliferation assay (CellTiter-Glo, 72 hours treatment)
Type: cell-based
Measurement Setup: Homo sapiens; MDA-MB-231 cells, 72 hours at 37° C., CellTiter-Glo; read-out: MDA-MB-231 cell proliferation assay (IC50)
Measured Property: IC50

molecule="CN(C)C(=O)[C@H]1[C@@H](O)[C@@]2(O)c3ncc(C#N)cc3O[C@@]2(c2ccc(C#N)cc2)[C@@H]1c1ccccc1 (single isomer, unassigned)" meas_value="100 to 1000 nM"
molecule="COc1cncc2c1[C@]1(O)[C@H](O)[C@H](CN(C)CCF)[C@@H](c3ccccc3)[C@]1(c1ccc(C#N)cc1)O2 (single isomer, unassigned) [248F]" meas_value="< 100 nM"
molecule="COc1cncc2c1[C@]1(O)[C@H](O)[C@H](CN(C)CC(C)(C)O)[C@@H](c3ccccc3)[C@]1(c1ccc(C#N)cc1)O2 (single isomer, unassigned) [252F]" meas_value="< 100 nM"
molecule="COc1nc(C#N)cc2c1[C@]1(O)[C@H](O)[C@H](CN3CCCC(F)(F)C3)[C@@H](c3ccccc3)[C@]1(c1ccc(C#N)cc1)O2 (racemic) [154F]" meas_value="100 to 1000 nM"
molecule="N#Cc1ccc([C@@]23Oc4cc(Cl)cnc4[C@]2(O)[C@@H]2OC[C@@H]2[C@H]3c2ccccc2)cc1 (racemic) [61F]" meas_value="> 1000 nM"
molecule="COC(=O)C1(F)[C@@H](O)[C@@]2(O)c3ncc(Cl)cc3O[C@@]2(c2ccc(Br)cc2)[C@@H]1c1ccccc1 (mixture of isomers) [58F]" meas_value="> 1000 nM"
